- Tested on: MDREC 1229(R)
- Applied conditions: 16 h
- Experimental: We examined the antimicrobial activities of the peptides against multidrug-resistant bacterial strains, including four gram-negative species (S. typhimurium 8009(R), E. coli 1229(R), P. aeruginosa 2095(R), and A. baumannii 12035(R); Table 3). MICs of the peptides against six standard bacteria and four multidrug-resistant bacteria were determined by a broth microdilution assay as described previously. […]
Ends that are not written are not given here.
A collection of substances and their measured MIC, MDREC 1229(R)

- Substance: "RAKIAKKIEKVGRNVRDGIIKAGPAVAVVGQAATVVK-NH2 [Papiliocin-2A5A]"
  Measurement unit: "µM"
  MIC, MDREC 1229(R): 2.00
- Substance: "RAKIFKKIEKVGRNVRDGIIKA-NH2 [PapN-2A]"
  Measurement unit: "µM"
  MIC, MDREC 1229(R): 2.00
- Substance: "RFKIWKKIEKVGRNVRDGIIKA-NH2 [PapN-2F5W]"
  Measurement unit: "µM"
  MIC, MDREC 1229(R): 2.00
- Substance: "RWKIAKKIEKVGRNVRDGIIKAGPAVAVVGQAATVVK-NH2 [Papiliocin-5A]"
  Measurement unit: "µM"
  MIC, MDREC 1229(R): 1.00
- Substance: "RWKIAKKIEKVGRNVRDGIIKA-NH2 [PapN-5A]"
  Measurement unit: "µM"
  MIC, MDREC 1229(R): 2.00
- Substance: "RWKIFKKIEKVGRNVRDGIIKAGPAVAVVGQAATVVK-NH2 [Papiliocin]"
  Measurement unit: "µM"
  MIC, MDREC 1229(R): 0.500
- Substance: "RWKIFKKIEKVGRNVRDGIIKA-NH2 [PapN]"
  Measurement unit: "µM"
  MIC, MDREC 1229(R): 4.00
- Substance: "RAKIFKKIEKVGRNVRDGIIKAGPAVAVVGQAATVVK-NH2 [Papiliocin-2A]"
  Measurement unit: "µM"
  MIC, MDREC 1229(R): 1.00
- Substance: "RAKIAKKIEKVGRNVRDGIIKA-NH2 [PapN-2A5A]"
  Measurement unit: "µM"
  MIC, MDREC 1229(R): 4.00

---

- System: Eenterococcus faecalis
- Applied conditions: E, 16 h
Ends that are not written are not given here.
Reported metric: MIC, Eenterococcus faecalis

- Substance: "RAKIAKKIEKVGRNVRDGIIKA-NH2 [PapN-2A5A]"
  Reported metric: "MIC, Eenterococcus faecalis"
  Test result: ">128 µM"
- Substance: "RWKIAKKIEKVGRNVRDGIIKAGPAVAVVGQAATVVK-NH2 [Papiliocin-5A]"
  Reported metric: "MIC, Eenterococcus faecalis"
  Test result: "128 µM"
- Substance: "RWKIAKKIEKVGRNVRDGIIKA-NH2 [PapN-5A]"
  Reported metric: "MIC, Eenterococcus faecalis"
  Test result: "128 µM"

---

- System: MDRPA 2095(R)
- Applied conditions: 16 h
Ends that are not written are not given here.
Reported metric: MIC, MDRPA 2095(R) (µM)

- Substance: "RAKIAKKIEKVGRNVRDGIIKAGPAVAVVGQAATVVK-NH2 [Papiliocin-2A5A]"
  Test result: 1.00
- Substance: "RWKIAKKIEKVGRNVRDGIIKA-NH2 [PapN-5A]"
  Test result: 8.00
- Substance: "RFKIWKKIEKVGRNVRDGIIKA-NH2 [PapN-2F5W]"
  Test result: 2.00
- Substance: "RWKIFKKIEKVGRNVRDGIIKA-NH2 [PapN]"
  Test result: 2.00
